Would you kindly list logD for each of these compounds?
Conditions: pH 6.5
Field format: numeric only.

Request: Find the recorded logD belonging to Cc1ccc(S(=O)(=O)/N=C2\SC(=CN(C)C)C(=O)N2C2CCCCC2)cc1 and report it.
Response: 4.75

Request: Find the recorded logD belonging to C[C@H]1CCc2nc(NC(=O)c3ccc(F)c(F)c3)sc2C1 and report it.
Response: 4.79

Request: Find the recorded logD belonging to CCCOc1ccc(N2C(=O)C[C@H](N3CCNC3=S)C2=O)cc1 and report it.
Response: 2.68

Request: Find the recorded logD belonging to CC(C)(C)C1(C)O[C@H](C(N)=O)[C@H](C(N)=O)O1 (stereo not given in full) and report it.
Response: 1.6

Request: Find the recorded logD belonging to Cc1cc2c(cc1C)N[C@@H](c1cc3c(cc1Cl)OCO3)C1=C(CC(C)(C)CC1=O)N2 and report it.
Response: 4.38

Request: Find the recorded logD belonging to CCCCNC(=S)N(C)/N=C/c1ccc(OCc2ccc(Cl)cc2)c(OC)c1 and report it.
Response: 6.8

Request: Find the recorded logD belonging to C[C@H]1CCCN(C(=O)COC(=O)COc2cc(Cl)c(Cl)cc2Cl)C1 and report it.
Response: 4.97

Request: Find the recorded logD belonging to O=C(c1ccc(Cl)cc1)N(Cc1ccc(Cl)c(Cl)c1)N1C(=O)[C@@H]2CCCC[C@H]2C1=O and report it.
Response: 5.51

Request: Find the recorded logD belonging to COc1ccc(N2C(=S)N=C(N[C@@H]([C@@H](Oc3ccc(Cl)cc3)n3cncn3)C(C)(C)C)C2(C)C)cc1 and report it.
Response: 5.56

Request: Find the recorded logD belonging to COc1cccc(/C=C/C(=O)OCC(=O)c2cc(C)n(-c3cc(C)on3)c2C)c1 and report it.
Response: 5.2

Request: Find the recorded logD belonging to O=P(Oc1ccccc1)(Oc1ccccc1)O[C@@H]1C=CS(=O)(=O)C1 and report it.
Response: 2.48

Request: Find the recorded logD belonging to C=CCOc1cccc([C@@H]2c3c(oc4ccccc4c3=O)C(=O)N2c2nnc(C)s2)c1 and report it.
Response: 4.52

Request: Find the recorded logD belonging to Cc1cccc(NC(=O)C[C@@H]2S/C(=N\c3c(C)cccc3C)N(C)C2=O)c1 and report it.
Response: 4.75

Request: Find the recorded logD belonging to Cc1ccc(N2CC(=O)N(/N=C/c3cn(-c4ccccc4)nc3-c3ccc(Cl)cc3)CC2=O)cc1 and report it.
Response: 6.14

Request: Find the recorded logD belonging to Cc1ccc(CN2C(=O)/C(=C/[C@@H]3CC=CCC3)SC2=S)cc1 and report it.
Response: 6.26

Request: Find the recorded logD belonging to C[C@@H]1CCCN(c2nc3c(c(=O)n(C)c(=O)n3C)n2CCSc2nc3ccccc3s2)C1 and report it.
Response: 5.05

Request: Find the recorded logD belonging to CCN(C(=O)CN1C(=O)[C@H]2CCCC[C@H]2C1=O)c1nnc(-c2ccc(Cl)cc2)s1 and report it.
Response: 4.91

Request: Find the recorded logD belonging to CC(C)(C)S(=O)(=O)/C(C#N)=C/Nc1ccc(OC(F)(F)F)cc1 and report it.
Response: 4.28

Request: Find the recorded logD belonging to CCn1c(NC[C@@H](O)c2ccccc2)nc2c1c(=O)n(C)c(=O)n2C and report it.
Response: 3.24

Request: Find the recorded logD belonging to COc1cc(/C=C(\NC(=O)c2ccccc2)C(=O)Nc2cccc(CO)c2)ccc1OC(C)=O and report it.
Response: 4.04
